molecular target: 5ht1e (Homo sapiens, UniProt P28566); assay: PDSP radioligand binding assay; conditions: Table 10
Sequence (P28566 whole entry, species assumed): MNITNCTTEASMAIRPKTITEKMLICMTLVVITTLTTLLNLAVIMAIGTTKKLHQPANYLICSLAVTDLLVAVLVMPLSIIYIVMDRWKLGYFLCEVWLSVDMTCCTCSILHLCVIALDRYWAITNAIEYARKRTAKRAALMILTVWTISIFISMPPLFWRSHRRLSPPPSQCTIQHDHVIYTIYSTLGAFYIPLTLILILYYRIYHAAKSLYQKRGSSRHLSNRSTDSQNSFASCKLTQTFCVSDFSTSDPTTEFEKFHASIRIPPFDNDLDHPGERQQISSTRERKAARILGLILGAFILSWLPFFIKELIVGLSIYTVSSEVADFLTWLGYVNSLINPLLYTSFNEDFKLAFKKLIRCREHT
pKi: −log10 of the molar value.
Assay Metric: pKi

Task: Using the record for Clc1ccc(CSc2nnc(-c3ccccn3)n2Cc2ccco2)cc1Cl [Compound 2{8}] , state its measured pKi.
Output: < 5.00

###

biological target: Sigma1; assay: PDSP radioligand binding assay; conditions: Table 5
Assay Metric: Ki

Task: Using the record for COc1ccc(N2CCN(CCCNC(=O)Cn3c(=O)c4cccn4c4c(C)ccnc43)CC2)cc1 [Compound 1{3}] , state its measured Ki.
Output: > 10 µM

###

Target: Alpha2A (Homo sapiens, UniProt P08913)
Sequence (P08913 1-465): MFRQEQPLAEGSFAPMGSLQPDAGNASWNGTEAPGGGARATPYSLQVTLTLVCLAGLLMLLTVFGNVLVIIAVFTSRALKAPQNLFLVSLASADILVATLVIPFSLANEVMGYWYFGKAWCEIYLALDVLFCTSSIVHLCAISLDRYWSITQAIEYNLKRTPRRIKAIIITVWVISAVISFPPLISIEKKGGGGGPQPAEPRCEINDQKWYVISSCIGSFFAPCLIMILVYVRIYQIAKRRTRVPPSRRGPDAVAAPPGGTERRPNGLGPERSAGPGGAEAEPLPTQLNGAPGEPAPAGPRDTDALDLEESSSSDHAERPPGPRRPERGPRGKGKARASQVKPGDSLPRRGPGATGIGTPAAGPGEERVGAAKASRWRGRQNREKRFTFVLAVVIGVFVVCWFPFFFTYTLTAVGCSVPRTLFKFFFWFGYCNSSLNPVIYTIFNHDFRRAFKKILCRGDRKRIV
Assay: PDSP radioligand binding assay
Settings: Table 10
pKi: −log10 of the molar value.
Assay Metric: pKi

Task: Using the record for Clc1ccc(CSc2nnc(-c3ccccn3)n2Cc2ccco2)cc1Cl , state its measured pKi.
Output: < 5.00

###

biological target: D5 (Homo sapiens, UniProt P21918); experiment: PDSP radioligand binding assay; conditions: Table 5
Sequence (P21918 whole entry): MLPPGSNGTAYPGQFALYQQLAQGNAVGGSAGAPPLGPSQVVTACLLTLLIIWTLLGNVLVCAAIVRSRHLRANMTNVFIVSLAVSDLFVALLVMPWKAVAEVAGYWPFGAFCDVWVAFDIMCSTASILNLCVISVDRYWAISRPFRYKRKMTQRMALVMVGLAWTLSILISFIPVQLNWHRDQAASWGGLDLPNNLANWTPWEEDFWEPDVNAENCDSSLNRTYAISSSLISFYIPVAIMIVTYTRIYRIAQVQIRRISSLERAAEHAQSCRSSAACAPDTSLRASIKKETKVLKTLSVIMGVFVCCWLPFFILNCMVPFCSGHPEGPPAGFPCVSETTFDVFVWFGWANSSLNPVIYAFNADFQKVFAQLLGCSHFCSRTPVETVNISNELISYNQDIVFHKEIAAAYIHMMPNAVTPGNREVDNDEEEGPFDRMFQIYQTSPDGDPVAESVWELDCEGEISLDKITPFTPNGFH
Assay Metric: Ki

Task: Using the record for COc1ccc(N2CCN(CCCNC(=O)Cn3c(=O)c4cccn4c4c(C)ccnc43)CC2)cc1 , state its measured Ki.
Output: > 10 µM

###

target: M4 (Homo sapiens, UniProt P08173); experiment: PDSP radioligand binding assay; settings: Table 10
Sequence (P08173 whole entry): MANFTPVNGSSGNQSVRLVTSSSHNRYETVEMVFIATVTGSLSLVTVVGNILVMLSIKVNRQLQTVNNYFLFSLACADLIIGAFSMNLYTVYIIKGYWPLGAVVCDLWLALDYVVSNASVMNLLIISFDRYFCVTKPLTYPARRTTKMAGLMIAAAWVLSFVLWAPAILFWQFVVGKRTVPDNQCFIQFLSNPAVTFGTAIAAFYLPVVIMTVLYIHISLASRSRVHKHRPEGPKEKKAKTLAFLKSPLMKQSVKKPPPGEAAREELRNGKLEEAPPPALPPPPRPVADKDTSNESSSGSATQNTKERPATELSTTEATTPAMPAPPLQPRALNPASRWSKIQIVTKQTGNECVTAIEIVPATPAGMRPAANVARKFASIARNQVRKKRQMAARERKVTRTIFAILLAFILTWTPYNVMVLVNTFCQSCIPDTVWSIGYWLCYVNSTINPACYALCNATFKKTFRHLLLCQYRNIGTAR
pKi: −log10 of the molar value.
Assay Metric: pKi

Task: Using the record for Clc1ccc(CSc2nnc(-c3ccccn3)n2Cc2ccco2)cc1Cl , state its measured pKi.
Output: < 5.00

###

test system: Fa2N-4 immortalized human hepatocytes; experiment: Hepatocyte toxicity; settings: read-out: LC50; Fa2N-4 hepatocytes
Assay Metric: CC50

Task: Using the record for Clc1ccc(CSc2nnc(-c3ccccn3)n2Cc2ccco2)cc1Cl , state its measured CC50.
Output: > 50 µM

###

target: UniProt:P41145; assay: DISCOVERX β-arrestin […] assay, agonist mode (KOR DRx); assay type: cell-based; conditions: agonist; n = 3; read-out: Average Potency KOR DRx
Sequence (P41145 whole entry): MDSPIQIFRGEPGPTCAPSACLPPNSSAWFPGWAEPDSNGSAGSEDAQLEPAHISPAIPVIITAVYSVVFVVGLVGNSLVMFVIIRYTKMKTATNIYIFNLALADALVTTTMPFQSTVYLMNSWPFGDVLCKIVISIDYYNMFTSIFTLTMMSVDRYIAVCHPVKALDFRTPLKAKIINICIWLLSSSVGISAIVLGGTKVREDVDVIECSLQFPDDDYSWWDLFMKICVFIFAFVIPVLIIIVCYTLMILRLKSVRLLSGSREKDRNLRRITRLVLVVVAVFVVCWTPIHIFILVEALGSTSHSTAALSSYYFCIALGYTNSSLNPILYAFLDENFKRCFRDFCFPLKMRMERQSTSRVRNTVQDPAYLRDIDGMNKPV
Assay Metric: pEC50
Numbers only, as −log10 of the molar value.

> print(dat)
                                   molecule  reading
1  Fc1ccc(CSc2nnc(-c3ccccn3)n2Cc2cccs2)c(F)c1 [Compound 2{24}]     5.17
2  Fc1ccc(CSc2nnc(-c3ccccn3)n2Cc2ccco2)c(F)c1F [Compound 2{43}]     5.15
3  FC(F)(F)c1cc(CSc2nnc(-c3ccccn3)n2Cc2cccs2)ccc1Cl [Compound 2{11}]     6.37

Give pEC50 for each of the items listed below.
1. Clc1ccc(CSc2nnc(-c3ccccn3)n2Cc2cccs2)cc1Cl [2{9}]
2. Cc1ccc(CSc2nnc(-c3ccccn3)n2Cc2ccco2)cc1 [Compound 2{12}]
3. Brc1ccc(CSc2nnc(-c3ccccn3)n2Cc2ccco2)cc1 [Compound 2{3}]

Output:
[6.14, 5.21, 5.72]

This collection of values is drawn from patent US9345703B2.
